Experiment: LogP by shake flask method
Type: physicochemical
Details: n-octanol/water
PARAMETER: logP
Reply briefly: the number, and no unit.

Known logP results, listed for orientation:
INSERT INTO measurements (line_notation, reported_measurement) VALUES
  ('COc1ccc(-c2noc(C3CN(C(=O)OC(C(F)(F)F)C(F)(F)F)C3)n2)cc1', 1.23),
  ('O=C(OC(C(F)(F)F)C(F)(F)F)N1CC(c2nc(-c3cccc(F)c3)no2)C1', 1.42),
  ('O=C(OC(C(F)(F)F)C(F)(F)F)N1CC(c2nc(-c3ccc(F)cc3)no2)C1', 1.45);

// "COc1cccc(-c2noc(C3CN(C(=O)OC(C(F)(F)F)C(F)(F)F)C3)n2)c1" : logP value = 1.17
